# measurement notes: Metabolic stability in human liver homogenate
# Type: in vitro ADME
# recorded conditions: 2 hours at 37° C., HPLC/fluorimetry, read-out: Metabolic Stability (substance remaining)
# Experimental: The metabolic stability is determined by a homogenate of hepatic tissue in physiological common salt solution being incubated with the test substance for 0 or 2 hours at 37° C. Then, the incubation batch is extracted and the content of test substance in the extract is determined by HPLC/fluorimetry. The substance remaining after 2 hours in comparison with 0 hours is expressed in percent stability.
measured parameter: remaining at 2 h (%)
Please reply with the bare figure in % and do not write the unit itself.

Provide remaining at 2 h value for the following molecule: `COCc1c(C(=O)c2ccccc2)ncc2[nH]c3ccc(OCc4ccccc4)cc3c12`
72
